binders and their reported ELISA signal at phage dilution factor 1
molecular target: T1, TRBV5-1 antigenic peptide No. 1 (TQTPRYLIKTRGQQ), peptide alone (Homo sapiens); assay: ELISA; confirmatory monoclonal phage ELISA; antigens peptide alone, peptide-BSA, peptide-biotin; controls PBS, 10% BSA-PBS, PBS-streptavidin; phage dilution factors 1, 3, 9; settings: one partner purified
T1 construct: short form of antigenic peptide No. 1 of the TRBV5-1 segment of the human TCR beta chain; also called Ag1; Peptide N. 1; source: synthetic peptide (Proteogenix)
T1 chain: TQTPRYLIKTRGQQ
Quantity name: ELISA signal at phage dilution factor 1

1. scFv clone A5 (scFv, V domains shown, as printed identical to the VH of A2; tested as phage clone in the confirmatory monoclonal ELISA; source: phage display clone from the human naive scFv library LiAb-SFMAX (Proteogenix), amplified in E. coli TG1) VH: QVQLQQSGPGLVKPSQTLSLTCAISGDSVSSNSAAWNWIRQSPSRGLEWLGRTYYRSKWYNDYAVSVKSRITINPDTSKNQFSLQLNSVTPEDTAVYYCARDQAAAEVYFDYWGQGTLVTVSS VL: NFMLTQPHSVSESPGKTVTISCTRSSGSIASNYVQWYQQRPGSSPTTVIYEDNQRPSGVPDRFSGSIDSSSNSASLTISGLKTEDEADYYCQSYDSSNHWVFGGGTKVTVL = 0.88
2. scFv clone C10 (scFv, V domains shown, tested as phage clone in the confirmatory monoclonal ELISA; source: phage display clone from the human naive scFv library LiAb-SFMAX (Proteogenix), amplified in E. coli TG1) VH: EVQLVQSGAEVKKPGSSVKVSCKASGGTFSSYAISWVRQAPGQGLEWMGGIIPIFGTANYAQKFQGRVTITADKSTSTAYMELSSLRSEDTAVYYCAREPLRGYSGYDFYYYGMDVWGQGTMVTVSS VL: SYELTQPHSVSGSPGETVTISCAGSGGSIASNYVQWYQQRPGSAPTTLIYEDKVRPSGVPDRFSGSIDYSSDSASLTISGLKTEDEADYYCQSADSTSTYVFGTGTKVTVL = 1.19
3. scFv clone D5 (scFv, V domains shown, tested as phage clone in the confirmatory monoclonal ELISA; source: phage display clone from the human naive scFv library LiAb-SFMAX (Proteogenix), amplified in E. coli TG1) VH: QVQLVQSGAEVKKPGASVKVSCKPSGYYFNGYDITWVRQAIGQGLEWMGWMNPNSGNRDYAHQFQGRLTMTWDTSLSTAYLELNNLQSDDTAIYYCARERVSSGLDFWGQGTLVTVSS VL: SYELTQPPSVSVSPGQTARITCSGDALPKQYAYWYQQKPGQAPVLLIYKDSERPSGIPERFSGSSSGTTVTLTISGVQAEDEADYYCQSADSSGTYVVFGGGTQLTVL = 0.75
4. scFv clone A2 (scFv, V domains shown, tested as phage clone in the confirmatory monoclonal ELISA; source: phage display clone from the human naive scFv library LiAb-SFMAX (Proteogenix), amplified in E. coli TG1) VH: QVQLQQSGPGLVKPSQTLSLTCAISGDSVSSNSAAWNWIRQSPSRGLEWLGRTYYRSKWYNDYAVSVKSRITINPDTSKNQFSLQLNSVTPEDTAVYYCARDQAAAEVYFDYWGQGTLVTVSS VL: NFMLTQPHSVSESPGKTVTISCTRSSGSIASNYLQWYQQRPGSAPTTVIYEDNQRPSGVPDRFSGSIDSSSNSASLTISGLKTEDEADYYCQSYDNRNHWVFGGGTQLTVL = 0.95
5. scFv clone A8 (scFv, V domains shown, tested as phage clone in the confirmatory monoclonal ELISA; source: phage display clone from the human naive scFv library LiAb-SFMAX (Proteogenix), amplified in E. coli TG1) VH: QVQLVQSGPEMKKAGASVRVSCKGSGYTFSSFDINWVRQVPGQGLEWMGWMNPDTGNTGLAQKFQGRVTMTRDTSIRTAYMELRSLRSDDTAVYYCARDAPRNGRGMDVWGQGTMVTVSS VL: SYELTQPPSVSVSPGQTARITCSGDALPKQYAYWYQQKPGQAPVLVIYQDTKRPSGIPERFSGSSSGTTVTLTISGVQAEDEADYYCQSADSSGTYPVFGGGTKLTVL = 0.94
6. scFv clone A12 (scFv, V domains shown, tested as phage clone in the confirmatory monoclonal ELISA; lead scFv from which the r-hIgG1 mAb was made; also called lead scFv; source: phage display clone from the human naive scFv library LiAb-SFMAX (Proteogenix), amplified in …) VH: QVQLQQWGAGLLKPSETLSLTCAVYGGSFSGYYWSWIRQPPGKGLEWIGEINHSGSTNYNPSLKSRVTISVDTSKNQFSLKLSSVTAADTAVYYCARWDLDYWGQGTLVTVSS VL: EIVLTQSPLSLPVTLGQSASISCRSSQSLVHSDGNTYLNWFQQRPGQSPRRLIYQVSKRDSGVPDRFSGSGSGTDFTLRISRVEAEDVGFYYCMQGTHWPPITFGQGTRLEIK = 0.99
